assay: Selectivity index, ratio of GI50 for human HL60 cells to GI50 for bloodstream form of Trypanosoma brucei 427-221a; assay type: toxicity; conditions: read-out: RatioGI50
property label: selectivity ratio
Keep the answer to the number alone.

Consider the following illustrative entries.
INSERT INTO measurements (query_smiles, property_label, reported_result) VALUES
  ('CC[C@@H](C(=O)[C@@H](C)[C@@H](O)[C@H](C)[C@@H]1O[C@@H]([C@@H](CC)C(=O)ONC(=O)c2ccccc2O)CC[C@@H]1C)[C@H]1O[C@]2(C=CC(=O)[C@]3(CC[C@@](C)([C@H]4CC[C@](O)(CC)[C@H](C)O4)O3)O2)[C@H](C)C[C@@H]1C', 'selectivity ratio', 56.8),
  ('CC[C@@H](C(=O)[C@@H](C)[C@@H](O)[C@H](C)[C@@H]1O[C@@H]([C@@H](CC)C(=O)ONC(=O)c2ccccc2O)CC[C@@H]1C)[C@H]1O[C@]2(C=C[C@@H](O)[C@]3(CC[C@@](C)([C@H]4CC[C@](O)(CC)[C@H](C)O4)O3)O2)[C@H](C)C[C@@H]1C', 'selectivity ratio', 60.6),
  ('CC[C@@H](C(=O)[C@@H](C)[C@@H](O)[C@H](C)[C@@H]1O[C@@H]([C@@H](CC)C(=O)ONC(=O)c2ccccc2)CC[C@@H]1C)[C@H]1O[C@]2(C=C[C@@H](O)[C@]3(CC[C@@](C)([C@H]4CC[C@](O)(CC)[C@H](C)O4)O3)O2)[C@H](C)C[C@@H]1C', 'selectivity ratio', 21.1);

Problem: Name the recorded selectivity ratio for `C#CCNC(=O)[C@H](CC)[C@H]1CC[C@H](C)[C@H]([C@@H](C)[C@H](O)[C@H](C)C(=O)[C@H](CC)[C@H]2O[C@]3(C=CC(=O)[C@]4(CC[C@@](C)([C@H]5CC[C@](O)(CC)[C@H](C)O5)O4)O3)[C@H](C)C[C@@H]2C)O1` .
Solution: 12.1

Problem: Quick one: selectivity ratio for `CC[C@@H](C(=O)[C@@H](C)[C@@H](O)[C@H](C)[C@@H]1O[C@@H]([C@@H](CC)C(=O)OCC(F)(F)F)CC[C@@H]1C)[C@H]1O[C@]2(C=C[C@@H](O)[C@]3(CC[C@@](C)([C@H]4CC[C@](O)(CC)[C@H](C)O4)O3)O2)[C@H](C)C[C@@H]1C` ?
Solution: 11.2

Problem: Given the compound `CC[C@@H](C(=O)[C@@H](C)[C@@H](O)[C@H](C)[C@@H]1O[C@@H]([C@@H](CC)C(=O)O)CC[C@@H]1C)[C@H]1O[C@]2(C=CC(=O)[C@]3(CC[C@@](C)([C@H]4CC[C@](O)(CC)[C@H](C)O4)O3)O2)[C@H](C)C[C@@H]1C` , what is its reported selectivity ratio?
Solution: 252

* * *

Measured selectivity ratio of individual entries
test: Selectivity index, ratio of GI50 for human HL60 cells to GI50 for bloodstream form of Trypanosoma brucei 427-221a; assay type: toxicity; conditions: read-out: RatioGI50
// no unit string in output, number only

INSERT INTO results (query_smiles, property_label, reported_result) VALUES
  ('C#CCOC(=O)[C@H](CC)[C@H]1CC[C@H](C)[C@H]([C@@H](C)[C@H](O)[C@H](C)C(=O)[C@H](CC)[C@H]2O[C@]3(C=C[C@@H](O)[C@]4(CC[C@@](C)([C@H]5CC[C@](O)(CC)[C@H](C)O5)O4)O3)[C@H](C)C[C@@H]2C)O1', 'selectivity ratio', 10.2);

Problem: Return reported selectivity ratio; argument: `C#CCNC(=O)[C@H](CC)[C@H]1CC[C@H](C)[C@H]([C@@H](C)[C@H](O)[C@H](C)C(=O)[C@H](CC)[C@H]2O[C@]3(C=C[C@@H](O)[C@]4(CC[C@@](C)([C@H]5CC[C@](O)(CC)[C@H](C)O5)O4)O3)[C@H](C)C[C@@H]2C)O1`
Solution: 11.6

Problem: Sample `C#CCN[C@@H]1C=C[C@]2(O[C@H]([C@@H](CC)C(=O)[C@@H](C)[C@@H](O)[C@H](C)[C@@H]3O[C@@H]([C@@H](CC)C(=O)O)CC[C@@H]3C)[C@@H](C)C[C@H]2C)O[C@@]12CC[C@@](C)([C@H]1CC[C@](O)(CC)[C@H](C)O1)O2` — what was its selectivity ratio?
Solution: 300

Problem: Dear colleague, I am looking for the recorded selectivity ratio of the following compound: `CC[C@@H](C(=O)[C@@H](C)[C@@H](O)[C@H](C)[C@@H]1O[C@@H]([C@@H](CC)C(=O)NCCc2ccc(F)cc2)CC[C@@H]1C)[C@H]1O[C@]2(C=C[C@@H](O)[C@]3(CC[C@@](C)([C@H]4CC[C@](O)(CC)[C@H](C)O4)O3)O2)[C@H](C)C[C@@H]1C`
Solution: 4
